assayed.system: Carbonic anhydrase 5B, mitochondrial (Homo sapiens, UniProt Q9Y2D0)
Sequence (Q9Y2D0 whole entry): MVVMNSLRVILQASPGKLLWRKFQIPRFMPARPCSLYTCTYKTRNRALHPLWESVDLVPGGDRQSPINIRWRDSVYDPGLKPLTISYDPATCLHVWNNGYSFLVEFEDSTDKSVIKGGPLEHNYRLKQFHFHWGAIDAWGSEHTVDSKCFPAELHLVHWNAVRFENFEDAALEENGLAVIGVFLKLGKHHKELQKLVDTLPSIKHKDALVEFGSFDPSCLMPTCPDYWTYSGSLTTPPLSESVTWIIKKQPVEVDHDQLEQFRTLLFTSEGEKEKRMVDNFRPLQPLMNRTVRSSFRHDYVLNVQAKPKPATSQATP
test.readout: Ki
The answer should read as a number with its unit following.

Given the molecule CCCCCCCCOS(N)(=O)=O [OCTYL SULFAMATE] and test system Carbonic anhydrase 5B, mitochondrial (Homo sapiens, UniProt Q9Y2D0), the measured Ki is 624 nM

* * *

assayed.system: Carbonic anhydrase 6 (Homo sapiens, UniProt P23280)
Sequence (P23280 whole entry): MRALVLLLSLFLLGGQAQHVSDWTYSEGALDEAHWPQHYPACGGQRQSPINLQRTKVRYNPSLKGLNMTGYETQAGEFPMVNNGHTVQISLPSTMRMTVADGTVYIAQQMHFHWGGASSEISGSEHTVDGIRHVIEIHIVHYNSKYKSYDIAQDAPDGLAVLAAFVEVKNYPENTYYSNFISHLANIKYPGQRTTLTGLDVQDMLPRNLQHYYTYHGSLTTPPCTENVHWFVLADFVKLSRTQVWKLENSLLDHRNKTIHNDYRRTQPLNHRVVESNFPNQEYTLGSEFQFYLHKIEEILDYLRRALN
test.readout: pKi
Scale for pKi: -log10 of concentration given in mol/L; no unit attached.

Record CCCCCCCCOS(N)(=O)=O [OCTYL SULFAMATE] has Carbonic anhydrase 6 (Homo sapiens, UniProt P23280) pKi equal to 6.10

* * *

assayed.system: Carbonic anhydrase 3 (Homo sapiens, UniProt P07451)
Sequence (P07451 whole entry): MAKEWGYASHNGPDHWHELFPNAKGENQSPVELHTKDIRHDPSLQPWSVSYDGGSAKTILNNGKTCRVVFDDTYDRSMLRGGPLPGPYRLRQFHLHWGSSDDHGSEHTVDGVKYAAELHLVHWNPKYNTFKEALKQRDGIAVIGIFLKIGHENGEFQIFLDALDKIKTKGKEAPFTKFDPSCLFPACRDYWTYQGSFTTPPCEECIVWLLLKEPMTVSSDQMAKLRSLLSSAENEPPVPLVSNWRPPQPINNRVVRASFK
test.readout: Ki (µM)
API: value field is a number in µM; no unit string.

Value sought: Ki, system Carbonic anhydrase 3 (Homo sapiens, UniProt P07451), item CCCCCCCCOS(N)(=O)=O [OCTYL SULFAMATE] . Result: 9.1

* * *

assayed.system: Carbonic anhydrase 12 (Homo sapiens)
Sequence (O43570 whole entry): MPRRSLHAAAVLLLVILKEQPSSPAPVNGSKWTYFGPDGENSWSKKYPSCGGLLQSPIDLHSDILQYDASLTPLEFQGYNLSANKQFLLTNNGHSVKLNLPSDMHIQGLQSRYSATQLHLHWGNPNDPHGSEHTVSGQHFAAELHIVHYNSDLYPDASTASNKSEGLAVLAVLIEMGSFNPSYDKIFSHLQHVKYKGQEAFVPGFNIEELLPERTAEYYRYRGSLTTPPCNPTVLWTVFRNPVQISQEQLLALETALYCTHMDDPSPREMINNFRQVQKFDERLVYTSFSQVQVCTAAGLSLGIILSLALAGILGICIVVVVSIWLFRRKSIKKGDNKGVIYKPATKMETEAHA
test.readout: pKi
// scale note: pKi = -log10(conc_M); give the bare number

The measured pKi that CCCCCCCCOS(N)(=O)=O [OCTYL SULFAMATE] showed for Carbonic anhydrase 12 (Homo sapiens) is 8.15

* * *

assayed.system: Carbonic anhydrase 7 (Homo sapiens, UniProt P43166)
Sequence (P43166 whole entry): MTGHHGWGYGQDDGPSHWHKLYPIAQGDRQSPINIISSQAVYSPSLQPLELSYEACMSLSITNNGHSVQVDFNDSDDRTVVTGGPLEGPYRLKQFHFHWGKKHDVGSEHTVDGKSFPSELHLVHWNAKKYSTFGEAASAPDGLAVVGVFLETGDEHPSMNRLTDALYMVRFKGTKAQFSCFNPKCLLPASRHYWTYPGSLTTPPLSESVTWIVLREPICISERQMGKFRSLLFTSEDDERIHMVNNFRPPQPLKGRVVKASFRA
test.readout: Ki (nM)
Write down the numeric answer in nM and omit the unit.

Form field, Ki with Carbonic anhydrase 7 (Homo sapiens, UniProt P43166), item CCCCCCCCOS(N)(=O)=O [OCTYL SULFAMATE] : 76.6

* * *

Consider the following Ki values measured on Carbonic anhydrase 13 (Mus musculus).
Sequence (Q9D6N1 whole entry): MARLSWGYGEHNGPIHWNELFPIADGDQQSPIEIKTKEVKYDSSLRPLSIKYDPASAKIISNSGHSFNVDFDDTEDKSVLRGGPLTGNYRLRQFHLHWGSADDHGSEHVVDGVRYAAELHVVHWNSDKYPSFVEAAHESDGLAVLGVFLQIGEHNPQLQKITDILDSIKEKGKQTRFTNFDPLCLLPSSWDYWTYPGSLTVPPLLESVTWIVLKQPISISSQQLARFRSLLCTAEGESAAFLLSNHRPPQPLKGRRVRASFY
The reply should be a number in nM, with the unit left off.

compound="CCCCCCCCOS(N)(=O)=O [OCTYL SULFAMATE]" assayed_system="Carbonic anhydrase 13 (Mus musculus)" test_readout=Ki numeric_value=1130

Now examine the next entry.
// Ki value for CCCCCCCCCCOS(N)(=O)=O [DECYL SULFAMATE] : 956
